Origin of values: patent US6632621B1

# target_entity: CEGPCR5 (Caenorhabditis elegans, UniProt Q18179)
# Sequence (Q18179 whole entry): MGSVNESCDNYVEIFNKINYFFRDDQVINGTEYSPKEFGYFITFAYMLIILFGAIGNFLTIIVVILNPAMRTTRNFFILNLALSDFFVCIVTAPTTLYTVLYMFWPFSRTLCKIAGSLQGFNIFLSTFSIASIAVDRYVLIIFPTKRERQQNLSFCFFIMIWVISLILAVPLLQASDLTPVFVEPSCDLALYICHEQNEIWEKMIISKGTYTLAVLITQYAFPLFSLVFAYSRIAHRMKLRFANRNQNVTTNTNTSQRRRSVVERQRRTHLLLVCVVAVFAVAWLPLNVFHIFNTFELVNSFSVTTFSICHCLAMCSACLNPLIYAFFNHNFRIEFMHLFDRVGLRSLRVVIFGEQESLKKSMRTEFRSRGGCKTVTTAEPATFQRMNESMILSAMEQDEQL
# assay: [35S]GTPγS binding assay, CEGPCR5 expressed in CHO cells
# Assay type: biochemical, C. elegans
# run_parameters: EC50 range, Table 9; one range for the group of peptides
pEC50: −log10 of the molar value. Where no end group is shown, it is not given here.
value_type: pEC50

# pEC50 lookup, item ARGPQLRLRF-NH2 [ARGPQLRLRF-NH2]
5.10 to 6.00

Then this substance: TNRNFLRF-NH2 [TNRNFLRF-NH2]
6.10 to 7.10

Then this substance: KPNFLRY-NH2 [KPNFLRY-NH2]
5.10 to 6.00

Then this substance: SDRNFLRF-NH2 [SDRNFLRF-NH2]
6.10 to 7.10

Then this substance: YGLGPRPLRF-NH2 [YGLGPRPLRF-NH2]
6.10 to 7.10
